# Assayed system: rNaV1.4 (Rattus norvegicus)
# Sequence (P15390 whole entry): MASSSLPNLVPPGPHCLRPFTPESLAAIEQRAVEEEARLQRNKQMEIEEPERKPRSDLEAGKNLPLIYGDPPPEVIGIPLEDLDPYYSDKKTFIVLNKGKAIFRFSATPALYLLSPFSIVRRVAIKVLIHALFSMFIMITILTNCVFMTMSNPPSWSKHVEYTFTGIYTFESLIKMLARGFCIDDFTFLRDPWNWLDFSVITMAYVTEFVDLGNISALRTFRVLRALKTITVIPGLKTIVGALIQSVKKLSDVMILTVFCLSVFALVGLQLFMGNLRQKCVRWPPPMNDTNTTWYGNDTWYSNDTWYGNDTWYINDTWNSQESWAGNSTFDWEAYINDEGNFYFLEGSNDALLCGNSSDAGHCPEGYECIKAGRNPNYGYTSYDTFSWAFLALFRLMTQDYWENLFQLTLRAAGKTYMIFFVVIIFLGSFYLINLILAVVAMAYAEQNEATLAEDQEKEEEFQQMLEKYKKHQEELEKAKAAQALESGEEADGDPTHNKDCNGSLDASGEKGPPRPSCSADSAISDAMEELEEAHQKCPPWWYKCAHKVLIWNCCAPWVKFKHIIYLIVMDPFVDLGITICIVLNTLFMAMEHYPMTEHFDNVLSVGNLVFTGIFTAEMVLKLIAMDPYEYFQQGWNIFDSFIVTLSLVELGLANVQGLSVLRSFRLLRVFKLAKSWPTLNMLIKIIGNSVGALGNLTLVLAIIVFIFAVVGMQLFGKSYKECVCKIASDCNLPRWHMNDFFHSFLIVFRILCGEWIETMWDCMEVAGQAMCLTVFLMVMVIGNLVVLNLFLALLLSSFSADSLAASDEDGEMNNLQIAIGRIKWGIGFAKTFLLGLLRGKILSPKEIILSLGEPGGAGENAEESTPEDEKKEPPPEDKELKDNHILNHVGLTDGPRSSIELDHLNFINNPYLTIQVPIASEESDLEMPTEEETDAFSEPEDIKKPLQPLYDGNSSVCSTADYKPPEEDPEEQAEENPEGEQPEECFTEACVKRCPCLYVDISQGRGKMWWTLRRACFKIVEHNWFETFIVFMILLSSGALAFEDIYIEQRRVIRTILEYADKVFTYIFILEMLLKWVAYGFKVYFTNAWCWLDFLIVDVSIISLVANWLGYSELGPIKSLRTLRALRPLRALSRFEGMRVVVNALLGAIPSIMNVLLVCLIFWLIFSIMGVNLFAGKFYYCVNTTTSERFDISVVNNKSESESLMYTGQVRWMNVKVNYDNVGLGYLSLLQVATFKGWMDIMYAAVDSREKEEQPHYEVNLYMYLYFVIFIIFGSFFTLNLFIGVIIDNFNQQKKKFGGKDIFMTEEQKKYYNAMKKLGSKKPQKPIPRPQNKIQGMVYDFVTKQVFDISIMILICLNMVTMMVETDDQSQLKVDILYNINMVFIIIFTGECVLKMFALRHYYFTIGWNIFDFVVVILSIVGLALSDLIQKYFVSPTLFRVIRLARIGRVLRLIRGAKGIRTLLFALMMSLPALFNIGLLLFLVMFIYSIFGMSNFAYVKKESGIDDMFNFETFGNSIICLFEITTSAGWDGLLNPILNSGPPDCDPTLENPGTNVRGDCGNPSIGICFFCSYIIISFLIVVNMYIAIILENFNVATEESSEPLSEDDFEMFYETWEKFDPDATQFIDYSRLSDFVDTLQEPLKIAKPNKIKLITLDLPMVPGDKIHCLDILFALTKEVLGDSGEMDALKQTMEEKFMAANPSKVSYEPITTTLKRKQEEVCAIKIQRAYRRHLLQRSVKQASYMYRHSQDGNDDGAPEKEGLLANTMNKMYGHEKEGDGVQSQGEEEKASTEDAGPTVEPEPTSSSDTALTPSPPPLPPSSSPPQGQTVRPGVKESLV
# Sequence (Q00954 19-218, further chain): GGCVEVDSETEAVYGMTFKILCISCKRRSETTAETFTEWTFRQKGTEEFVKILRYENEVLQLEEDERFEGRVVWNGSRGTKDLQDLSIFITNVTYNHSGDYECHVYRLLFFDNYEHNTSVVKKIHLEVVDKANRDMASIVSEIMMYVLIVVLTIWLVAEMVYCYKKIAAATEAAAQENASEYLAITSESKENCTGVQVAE
Where a SMILES comes first, the peptide text is derived from it. Bridges are numbered along the chain shown (N, C = ends).
Reported property: IC50

Prompt line: Give the reported IC50 for this compound. C[C@@H]1NC(=O)[C@H](Cc2c[nH]c3ccccc23)NC(=O)[C@H](CCCNC(=N)N)NC(=O)[C@H](CCCNC(=N)N)NC(=O)[C@@H](N)CSSC[C@@H](C(=O)O)NC(=O)[C@H](CCCNC(=N)N)NC(=O)[C@H](CC(N)=O)NC(=O)[C@H](Cc2c[nH]c3ccccc23)NC(=O)[C@H](CCCNC(=N)N)NC1=O [PnCS1DeAm, CRRWARWNRC] (H-CRRWARWNRC-OH; disulfide 1-10)
Response line: > 100 µM

Prompt line: Give IC50 for the following compound: CC(=O)N[C@H]1CSSC[C@@H](C(N)=O)NC(=O)[C@H](CCCNC(=N)N)NC(=O)[C@H](CC(N)=O)NC(=O)[C@H](Cc2c[nH]c3ccccc23)NC(=O)[C@H](CCCNC(=N)N)NC(=O)[C@H](C)NC(=O)[C@H](Cc2c[nH]c3ccccc23)NC(=O)[C@H](CCCNC(=N)N)NC(=O)[C@H](CCCNC(=N)N)NC1=O [PnCS1AcAm, Ac-CRRWARWNRC ^*] (Ac-CRRWARWNRC-NH2; disulfide 1-10)
Response line: > 100 µM

Prompt line: Return IC50 (reported value) for this compound: C[C@@H]1NC(=O)[C@H](Cc2c[nH]c3ccccc23)NC(=O)[C@H](CCCNC(=N)N)NC(=O)[C@H](CCCNC(=N)N)NC(=O)[C@@H](N)CSSC[C@@H](C(N)=O)NC(=O)[C@H](CCCNC(=N)N)NC(=O)[C@H](CCC(=O)O)NC(=O)[C@H](Cc2c[nH]c3ccccc23)NC(=O)[C@H](CCCNC(=N)N)NC1=O [PnCS1[N8E], CRRWARWERC ^*] (H-CRRWARWERC-NH2; disulfide 1-10)
Response line: > 100 µM

###

# Assayed system: UniProt P04775
# Experiment summary: Two-electrode voltage-clamp on Xenopus laevis oocytes expressing NaV1.2
# Recorded conditions: read-out: Maximum % inhibition NaV1.2, peptide at 100 μM
Where a SMILES comes first, the peptide text is derived from it. Bridges are numbered along the chain shown (N, C = ends).
Provide the recorded inhibition at 100 µM for the entries that follow.
// return numeric value only (unit: %, not printed)

Prompt line: Please report inhibition at 100 µM for the following compound: C[C@@H]1NC(=O)[C@H](Cc2c[nH]c3ccccc23)NC(=O)[C@H](CCCNC(=N)N)NC(=O)[C@H](CCCNC(=N)N)NC(=O)[C@@H](N)CSSC[C@@H](C(N)=O)NC(=O)[C@H](CCCNC(=N)N)NC(=O)[C@H](CC(N)=O)NC(=O)[C@H](Cc2c[nH]c3ccccc23)NC(=O)[C@H](CCC(=O)O)NC1=O [PnCS1[R6E], CRRWAEWNRC ^*] (H-CRRWAEWNRC-NH2; disulfide 1-10)
Response line: 49

Prompt line: Look up and report measured inhibition at 100 µM for this entry: C[C@@H]1NC(=O)[C@H](Cc2c[nH]c3ccccc23)NC(=O)[C@H](CCCNC(=N)N)NC(=O)[C@H](CCCNC(=N)N)NC(=O)[C@@H](N)CSSC[C@@H](C(N)=O)NC(=O)[C@H](CCCNC(=N)N)NC(=O)[C@H](CC(N)=O)NC(=O)[C@H](CCC(=O)O)NC(=O)[C@H](CCCNC(=N)N)NC1=O [PnCS1[W7E], CRRWARENRC ^*] (H-CRRWARENRC-NH2; disulfide 1-10)
Response line: 21

Prompt line: Dear colleague, please send me the reported inhibition at 100 µM for N=C(N)NCCC[C@@H]1NC(=O)[C@H](CC(N)=O)NC(=O)[C@H](Cc2c[nH]c3ccccc23)NC(=O)[C@H](CCCNC(=N)N)NC(=O)[C@H](CCC(=O)O)NC(=O)[C@H](Cc2c[nH]c3ccccc23)NC(=O)[C@H](CCCNC(=N)N)NC(=O)[C@H](CCCNC(=N)N)NC(=O)[C@@H](N)CSSC[C@@H](C(N)=O)NC1=O [PnCS1[A5E], CRRWERWNRC ^*] (H-CRRWERWNRC-NH2; disulfide 1-10) when you can.
Response line: 81

Prompt line: Report measured inhibition at 100 µM; entry is C[C@@H]1NC(=O)[C@H](CC(N)=O)NC(=O)[C@H](Cc2c[nH]c3ccccc23)NC(=O)[C@H](CCCNC(=N)N)NC(=O)[C@H](C)NC(=O)[C@H](Cc2c[nH]c3ccccc23)NC(=O)[C@H](CCCNC(=N)N)NC(=O)[C@H](CCCNC(=N)N)NC(=O)[C@@H](N)CSSC[C@@H](C(N)=O)NC1=O [PnCS1[R9A], CRRWARWNAC ^*] (H-CRRWARWNAC-NH2; disulfide 1-10)
Response line: 80

Prompt line: Provide only the value of recorded inhibition at 100 µM for C[C@@H]1NC(=O)[C@H](Cc2c[nH]c3ccccc23)NC(=O)[C@H](CCCNC(=N)N)NC(=O)[C@H](CCCNC(=N)N)NC(=O)[C@@H](N)CSSC[C@@H](C(N)=O)NC(=O)[C@H](CCCNC(=N)N)NC(=O)[C@H](CCCCN)NC(=O)[C@H](Cc2c[nH]c3ccccc23)NC(=O)[C@H](CCCNC(=N)N)NC1=O [PnCS1[N8K], CRRWARWKRC ^*] (H-CRRWARWKRC-NH2; disulfide 1-10)
Response line: 81

Prompt line: For the compound C[C@@H]1NC(=O)[C@H](Cc2c[nH]c3ccccc23)NC(=O)[C@H](C)NC(=O)[C@H](CCCNC(=N)N)NC(=O)[C@@H](N)CSSC[C@@H](C(N)=O)NC(=O)[C@H](CCCNC(=N)N)NC(=O)[C@H](CC(N)=O)NC(=O)[C@H](Cc2c[nH]c3ccccc23)NC(=O)[C@H](CCCNC(=N)N)NC1=O [PnCS1[R3A], CRAWARWNRC ^*] (H-CRAWARWNRC-NH2; disulfide 1-10) , give its measured inhibition at 100 µM value.
Response line: 86

Prompt line: Identify measured inhibition at 100 µM associated with C[C@@H]1NC(=O)[C@H](Cc2c[nH]c3ccccc23)NC(=O)[C@H](CCCNC(=N)N)NC(=O)[C@H](CCCNC(=N)N)NC(=O)[C@@H](N)CSSC[C@@H](C(N)=O)NC(=O)[C@H](CCCNC(=N)N)NC(=O)[C@H](CC(N)=O)NC(=O)[C@H](Cc2c[nH]c3ccccc23)NC(=O)[C@H](CCCCN)NC1=O [PnCS1[R6K], CRRWAKWNRC ^*] (H-CRRWAKWNRC-NH2; disulfide 1-10)
Response line: 67

Prompt line: Specify measured inhibition at 100 µM for N=C(N)NCCC[C@@H]1NC(=O)[C@H](CC(N)=O)NC(=O)[C@H](Cc2c[nH]c3ccccc23)NC(=O)[C@H](CCCNC(=N)N)NC(=O)[C@H](CCCCN)NC(=O)[C@H](Cc2c[nH]c3ccccc23)NC(=O)[C@H](CCCNC(=N)N)NC(=O)[C@H](CCCNC(=N)N)NC(=O)[C@@H](N)CSSC[C@@H](C(N)=O)NC1=O [PnCS1[A5K], CRRWKRWNRC ^*] (H-CRRWKRWNRC-NH2; disulfide 1-10) .
Response line: 84

Prompt line: Note inhibition at 100 µM for the compound shown: C[C@@H]1NC(=O)[C@H](C)NC(=O)[C@H](CCCNC(=N)N)NC(=O)[C@H](CCCNC(=N)N)NC(=O)[C@@H](N)CSSC[C@@H](C(N)=O)NC(=O)[C@H](CCCNC(=N)N)NC(=O)[C@H](CC(N)=O)NC(=O)[C@H](Cc2c[nH]c3ccccc23)NC(=O)[C@H](CCCNC(=N)N)NC1=O [PnCS1[W4A], CRRAARWNRC ^*] (H-CRRAARWNRC-NH2; disulfide 1-10)
Response line: 89

Prompt line: Identify inhibition at 100 µM associated with the compound CC(=O)N[C@H]1CSSC[C@@H](C(N)=O)NC(=O)[C@H](CCCNC(=N)N)NC(=O)[C@H](CC(N)=O)NC(=O)[C@H](Cc2c[nH]c3ccccc23)NC(=O)[C@H](CCCNC(=N)N)NC(=O)[C@H](C)NC(=O)[C@H](Cc2c[nH]c3ccccc23)NC(=O)[C@H](CCCNC(=N)N)NC(=O)[C@H](CCCNC(=N)N)NC1=O [PnCS1AcAm, Ac-CRRWARWNRC ^*] (Ac-CRRWARWNRC-NH2; disulfide 1-10)
Response line: 0

###

# Assayed system: rNaV1.8 (Rattus norvegicus, UniProt Q62968)
# Sequence (Q62968 whole entry): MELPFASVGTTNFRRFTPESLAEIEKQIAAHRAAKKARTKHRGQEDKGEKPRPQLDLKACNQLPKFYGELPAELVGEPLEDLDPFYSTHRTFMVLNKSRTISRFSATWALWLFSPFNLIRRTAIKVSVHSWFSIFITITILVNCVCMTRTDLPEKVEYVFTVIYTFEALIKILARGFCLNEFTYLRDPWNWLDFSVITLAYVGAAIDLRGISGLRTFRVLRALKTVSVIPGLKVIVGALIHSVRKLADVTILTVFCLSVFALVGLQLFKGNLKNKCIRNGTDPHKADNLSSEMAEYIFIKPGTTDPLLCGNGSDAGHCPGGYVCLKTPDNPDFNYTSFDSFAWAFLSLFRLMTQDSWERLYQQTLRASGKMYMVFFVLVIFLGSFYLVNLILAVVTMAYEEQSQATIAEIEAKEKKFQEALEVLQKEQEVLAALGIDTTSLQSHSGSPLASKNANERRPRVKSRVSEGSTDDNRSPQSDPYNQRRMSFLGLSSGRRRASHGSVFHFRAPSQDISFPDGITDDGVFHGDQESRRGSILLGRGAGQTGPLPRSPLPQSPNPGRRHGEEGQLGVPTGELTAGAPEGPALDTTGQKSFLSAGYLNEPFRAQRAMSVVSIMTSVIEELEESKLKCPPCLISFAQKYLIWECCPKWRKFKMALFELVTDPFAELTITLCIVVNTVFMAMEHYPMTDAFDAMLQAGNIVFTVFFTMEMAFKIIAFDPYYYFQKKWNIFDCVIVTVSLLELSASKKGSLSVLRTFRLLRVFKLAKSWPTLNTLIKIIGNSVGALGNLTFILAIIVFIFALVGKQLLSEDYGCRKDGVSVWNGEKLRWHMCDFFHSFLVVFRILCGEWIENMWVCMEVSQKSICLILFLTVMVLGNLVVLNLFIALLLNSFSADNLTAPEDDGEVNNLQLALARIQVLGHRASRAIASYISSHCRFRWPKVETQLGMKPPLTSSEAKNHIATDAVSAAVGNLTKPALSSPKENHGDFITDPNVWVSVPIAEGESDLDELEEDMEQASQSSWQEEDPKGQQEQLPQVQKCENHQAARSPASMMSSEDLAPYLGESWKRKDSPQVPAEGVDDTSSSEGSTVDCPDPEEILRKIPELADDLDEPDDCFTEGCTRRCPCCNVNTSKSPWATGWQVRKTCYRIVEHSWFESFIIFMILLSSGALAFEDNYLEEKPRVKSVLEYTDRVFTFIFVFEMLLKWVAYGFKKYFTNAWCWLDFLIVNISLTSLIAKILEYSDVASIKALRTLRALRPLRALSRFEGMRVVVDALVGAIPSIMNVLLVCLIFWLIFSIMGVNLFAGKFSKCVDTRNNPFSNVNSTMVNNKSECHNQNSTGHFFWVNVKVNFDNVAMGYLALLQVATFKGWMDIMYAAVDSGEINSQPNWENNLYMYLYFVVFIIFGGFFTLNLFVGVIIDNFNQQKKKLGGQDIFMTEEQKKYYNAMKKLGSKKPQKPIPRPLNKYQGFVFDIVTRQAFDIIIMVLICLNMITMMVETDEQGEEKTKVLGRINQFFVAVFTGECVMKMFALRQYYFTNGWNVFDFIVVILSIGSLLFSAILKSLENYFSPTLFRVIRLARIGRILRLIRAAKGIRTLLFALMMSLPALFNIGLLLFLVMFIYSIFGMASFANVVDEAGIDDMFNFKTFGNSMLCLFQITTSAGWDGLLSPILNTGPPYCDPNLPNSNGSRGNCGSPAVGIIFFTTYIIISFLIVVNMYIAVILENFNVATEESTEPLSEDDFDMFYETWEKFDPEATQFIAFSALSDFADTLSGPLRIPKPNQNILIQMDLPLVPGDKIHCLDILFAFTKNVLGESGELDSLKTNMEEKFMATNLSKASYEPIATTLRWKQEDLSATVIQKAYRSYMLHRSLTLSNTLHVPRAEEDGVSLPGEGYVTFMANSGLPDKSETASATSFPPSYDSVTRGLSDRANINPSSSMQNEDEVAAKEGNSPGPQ
# Experiment summary: Two-electrode voltage-clamp on Xenopus laevis oocytes expressing NaV1.8
# Recorded conditions: read-out: Maximum % inhibition NaV1.8
Where a SMILES comes first, the peptide text is derived from it. Bridges are numbered along the chain shown (N, C = ends).
Would you kindly list inhibition at 100 µM for each of these molecules?
Report the figure in % without appending any unit label.

Prompt line: // fetch inhibition at 100 µM given entry C[C@@H]1NC(=O)[C@H](Cc2c[nH]c3ccccc23)NC(=O)[C@H](CCCNC(=N)N)NC(=O)[C@H](CCCNC(=N)N)NC(=O)[C@@H](N)CSSC[C@@H](C(N)=O)NC(=O)[C@H](CCCNC(=N)N)NC(=O)[C@H](CC(N)=O)NC(=O)[C@H](Cc2c[nH]c3ccccc23)NC(=O)[C@H](CCCNC(=N)N)NC1=O [PnCS1, CRRWARWNRC ^*] (H-CRRWARWNRC-NH2; disulfide 1-10)
Response line: 0

Prompt line: For the molecule C[C@@H]1NC(=O)[C@H](Cc2c[nH]c3ccccc23)NC(=O)[C@H](CCCNC(=N)N)NC(=O)[C@H](CCCNC(=N)N)NC(=O)[C@@H](N)CSSC[C@@H](C(N)=O)NC(=O)[C@H](CCCCN)NC(=O)[C@H](CC(N)=O)NC(=O)[C@H](Cc2c[nH]c3ccccc23)NC(=O)[C@H](CCCNC(=N)N)NC1=O [PnCS1[R9K], CRRWARWNKC ^*] (H-CRRWARWNKC-NH2; disulfide 1-10) , give its reported inhibition at 100 µM.
Response line: 0

The reported measurements were obtained from paper PMC9116130.
